- Tested on: Leishmania major
- assay-name: Antileishmanial activity against Leishmania major promastigotes assessed as parasite growth inhibition incubated for 48 hrs
- Assay type: functional
- Design: scale not given: the % may be the effect or the level left
Listed next: entries and their corresponding Activity.

Some entries whose results are on file:
O=C1Nc2ccc(OC(F)(F)F)cc2/C1=N/Nc1ccnc2cc(Cl)ccc12    28%
COc1cc(Cc2cnc(N)nc2N)cc(OC)c1OC    71%
O=C1Nc2ccc(Br)cc2/C1=N/Nc1ccnc2cc(Cl)ccc12    21%

Next molecule, Activity to be filled in.
Lab book: Activity of O=C1Nc2ccc(F)cc2/C1=N/Nc1ccnc2cc(Cl)ccc12 noted as 25%

---

- assay-name: Cytotoxicity against African green monkey Vero cells assessed as reduction in cell viability incubated for 72 hrs by crystal violet staining based analysis
- Format: toxicity
- assay-conditions: chlorocebus sabaeus
result-type: CC50 at 72 h (µM)
Respond with the bare value in µM.

Some entries whose results are on file:
O=C1Nc2ccc(Br)cc2/C1=N/Nc1ccnc2cc(Cl)ccc12    156
O=C1Nc2ccc(F)cc2/C1=N/Nc1ccnc2cc(Cl)ccc12    184

Next molecule, CC50 at 72 h to be filled in.
Lab book: CC50 at 72 h of O=C1Nc2ccc(OC(F)(F)F)cc2/C1=N/Nc1ccnc2cc(Cl)ccc12 noted as 308
